Below: a set of entries, each annotated with reported glycan array binding signal (z-score).
Target: Neu5Ac(a2-6)GalNAc
Test: glycan array binding signal (z-score within array); higher = stronger binding
Conditions: glycan notation: IUPAC condensed, linker removed
About 410 targets per protein were measured; listed, in parts, are those with the strongest signals and a random draw of the rest.
Just the number, please, no unit attached.

// worked examples, glycan array binding signal (z-score) included
Binder	glycan array binding signal (z-score)
RBMC1 (Vibrio cholerae) (protein) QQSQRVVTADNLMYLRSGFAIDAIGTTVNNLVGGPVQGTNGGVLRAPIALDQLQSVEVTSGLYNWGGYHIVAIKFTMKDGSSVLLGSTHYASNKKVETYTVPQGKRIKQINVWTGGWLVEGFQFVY	-0.35
AFL (Aspergillus fumigatus), Q4WW81 (protein) STPGAQQVLFRTGIAAVNLTNHLRVYFQDVYGSIRESLYEGSWANGTEKNVIGNAKLGSPVAATSKELKHIRVYTLTEGNTLQEFAYDSGTGWYNGGLGGAKFQVAPYSRIAAVFLAGTDALQLRIYAQKPDNTIQEYMWNGDGWKEGTNLGGALPGTGIGATSFRYTDYNGPSIRIWFQTDDLKLVQRAYDPHKGWYPDLVTIFDRAPPRTAIAATSFGAGNSSIYMRIYFVNSDNTIWQVCWDHGKGYHDKGTITPVIQGSEVAIISWGSFANNGPDLRLYFQNGTYISAVSEWVWNRAHGSQLGRSALPPA	-0.383

For the next question, use this binder.
Exam item: Which glycan array binding signal (z-score) reading was recorded for the binder GNAT (Pseudomonas aeruginosa), Q9HV14 (protein) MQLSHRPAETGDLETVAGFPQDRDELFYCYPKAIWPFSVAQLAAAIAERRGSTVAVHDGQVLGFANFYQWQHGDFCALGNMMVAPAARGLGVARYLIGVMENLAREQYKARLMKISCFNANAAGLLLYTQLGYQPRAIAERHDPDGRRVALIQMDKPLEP ?
Marked response: -0.404
